// provenance: patent US6723897B2

Test system: wild-type soybean line A3237
Assay: Experiment I greenhouse test, seed imbibition, wild-type soybean
Settings: 0.25 mg/ml; seeds imbibed 5 hours
# reported Observation on Wild-Type Line A3237; entries follow

These recorded examples may help you get a feel for the data.
[[record]]
compound = "C=C1C[C@@]23CC[C@H]4[C@@](C)(CCC[C@@]4(C)C(=O)O)[C@@H]2CC[C@]1(O)C3 (single isomer, unassigned; ent-7)"
value_reported = 0

[[record]]
compound = "C=C1C[C@]23C[C@H]1CC[C@H]2[C@@]12C=C[C@H](O)[C@@](C)(C(=O)O1)[C@H]2[C@@H]3C(=O)OC"
value_reported = 1

[[record]]
compound = "C=C1C[C@]23C[C@H]1CC[C@H]2[C@@]12CCC[C@@](C)(C(=O)O1)[C@H]2[C@@H]3C(=O)O"
value_reported = 3

[[record]]
compound = "C=C1C[C@]23C[C@@]1(O)CC[C@H]2[C@@]12CCC[C@@](C)(C(=O)O1)[C@H]2[C@@H]3C(=O)O"
value_reported = 4

[[record]]
compound = "C=C1C[C@]23C[C@H]1CC[C@H]2[C@@]12CC[C@H](O)[C@@](C)(C(=O)O1)[C@H]2[C@@H]3C(=O)O"
value_reported = 2


Query C=C1C[C@]23C[C@H]1CC[C@H]2[C@@]12CC[C@H](O)[C@@](C)(C(=O)O1)[C@H]2[C@@H]3C(=O)OC yields Observation on Wild-Type Line A3237 of 1

// Observation on Wild-Type Line A3237 value for C=C1C[C@@]23CC[C@H]4[C@@](C)(CCC[C@@]4(C)C(=O)O)[C@@H]2CC[C@@H]1C3 : 0
